Measurement Setup: in n-hexanol, 288.15 K
Property: solubility (mole fraction)
Simply state the number, no unit and no words.

Respond only with solubility (mole fraction) recorded for Cl.c1ccc([C@H]2CN3CCSC3=N2)cc1
0.000986

###

Measurement Setup: in isobutanol, 293.15 K
Property: solubility (mole fraction)

Respond only with solubility (mole fraction) recorded for Cl.c1ccc([C@H]2CN3CCSC3=N2)cc1
0.00182

###

Measurement Setup: in isopentanol, 293.15 K
Property: solubility (mole fraction)
Simply state the number, no unit and no words.

Respond only with solubility (mole fraction) recorded for Cl.c1ccc([C@H]2CN3CCSC3=N2)cc1
0.00182

###

Measurement Setup: in isobutanol, 303.15 K
Property: solubility (mole fraction)
Simply state the number, no unit and no words.

Respond only with solubility (mole fraction) recorded for Cl.c1ccc([C@H]2CN3CCSC3=N2)cc1
0.00334
